Sourced from paper PMC6930573

target: AChE (from human erythrocytes) (Homo sapiens, UniProt P22303)
Sequence (P22303 other isoform, or with tags, fused parts or gaps): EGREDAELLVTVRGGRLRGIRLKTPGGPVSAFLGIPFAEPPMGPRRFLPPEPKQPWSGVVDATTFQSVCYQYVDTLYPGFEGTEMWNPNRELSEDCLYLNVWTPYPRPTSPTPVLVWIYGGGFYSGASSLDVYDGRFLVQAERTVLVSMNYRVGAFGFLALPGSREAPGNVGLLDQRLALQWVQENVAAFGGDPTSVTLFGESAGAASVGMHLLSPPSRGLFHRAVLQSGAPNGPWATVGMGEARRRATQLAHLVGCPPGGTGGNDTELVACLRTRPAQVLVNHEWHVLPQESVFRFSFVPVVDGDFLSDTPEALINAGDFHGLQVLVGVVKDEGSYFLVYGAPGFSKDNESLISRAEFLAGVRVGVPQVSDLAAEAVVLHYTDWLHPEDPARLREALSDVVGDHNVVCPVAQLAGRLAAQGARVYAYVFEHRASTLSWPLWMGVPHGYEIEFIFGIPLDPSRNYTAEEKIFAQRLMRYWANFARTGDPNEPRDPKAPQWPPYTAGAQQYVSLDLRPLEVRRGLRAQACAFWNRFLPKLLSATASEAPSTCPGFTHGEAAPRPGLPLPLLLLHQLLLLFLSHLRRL
Result Type: IC50
Record the result as a number with its unit.

Test system AChE (from human erythrocytes) (Homo sapiens, UniProt P22303); read-out IC50; what value for COC(=O)c1c(S(=O)(=O)Nc2ccc(C)cc2)sc2c1CCN(Cc1ccccc1O)C2 [Compound 19] ?
13.8 µM

----------
target: AChE (from human erythrocytes) (Homo sapiens, UniProt P22303); construct: AChE (from human erythrocytes, C0663); purchased Sigma-Aldrich C0663; host or cells: human erythrocytes; assay: biochemical; assay type: biochemical; details: at 10 μM; mean ± SEM of three experiments
Reported AChE IR (inhibition ratio) values follow for various molecules

The following molecules have reported results that may help.
[
  {
    "Molecule": "O=C(NC1(C(F)(F)F)N=C(c2ccccc2)N(Cc2ccccc2)C1=O)c1ccco1 (stereo not shown)",
    "AChE IR (inhibition ratio)": "−0.7 ± 0.7%"
  },
  {
    "Molecule": "CCN(Cc1ccccc1)C(=O)CCc1nc2ccsc2c(=O)n1Cc1ccccc1",
    "AChE IR (inhibition ratio)": "10.9 ± 0.8%"
  },
  {
    "Molecule": "CC1=NC2C(SC(=S)N2Cc2ccco2)C(=O)N1CC(=O)NCCc1ccccc1 (stereo not shown)",
    "AChE IR (inhibition ratio)": "1.1 ± 1.0%"
  }
]

Next, consider the following molecule.
Any idea what its AChE IR (inhibition ratio) is? The molecule is Cc1ccc(S(=O)(=O)Nc2nc3ccccc3nc2NCc2ccc(F)cc2)cc1C
−0.31 ± 0.5%
